Reported values of pIC50 for individual entries
# test.target: Snake venom metalloproteinase neuwiedase (Bothrops pauloensis, UniProt Q9I9R4)
# Sequence (Q9I9R4 whole entry): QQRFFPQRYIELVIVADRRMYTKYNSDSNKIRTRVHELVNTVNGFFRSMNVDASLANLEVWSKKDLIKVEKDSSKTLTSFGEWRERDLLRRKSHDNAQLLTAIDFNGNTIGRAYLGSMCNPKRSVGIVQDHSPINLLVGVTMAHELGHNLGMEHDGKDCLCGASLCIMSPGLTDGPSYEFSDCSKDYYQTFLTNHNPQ
# test.protocol: Inhibition of Bothrops pauloensis MP1 assessed as reduction in azocaseinolytic activity after 30 mins
# setup.conditions: read-out: IC50
Note on units: pIC50 is unitless, being -log10 of a concentration expressed in mol/L.

- compound: "COc1ccc(/C(CCCC(=O)O)=N/NC(N)=S)cc1"
  test.target: "Snake venom metalloproteinase neuwiedase (Bothrops pauloensis, UniProt Q9I9R4)"
  reported.metric: "pIC50"
  value: 5.75
- compound: "NC(=S)N/N=C/c1ccc(Br)cc1"
  test.target: "Snake venom metalloproteinase neuwiedase (Bothrops pauloensis, UniProt Q9I9R4)"
  reported.metric: "pIC50"
  value: 2.50
- compound: "COc1ccc(/C=N/NC(N)=S)cc1O"
  test.target: "Snake venom metalloproteinase neuwiedase (Bothrops pauloensis, UniProt Q9I9R4)"
  reported.metric: "pIC50"
  value: 2.47
- compound: "NC(=S)N/N=C/c1ccccc1 [PHENYLTHIOSEMICARBAZONE]"
  test.target: "Snake venom metalloproteinase neuwiedase (Bothrops pauloensis, UniProt Q9I9R4)"
  reported.metric: "pIC50"
  value: 2.37
- compound: "COc1ccc(/C=N/NC(N)=S)cc1"
  test.target: "Snake venom metalloproteinase neuwiedase (Bothrops pauloensis, UniProt Q9I9R4)"
  reported.metric: "pIC50"
  value: 2.52

Notebook: pull reported pIC50 for Snake venom metalloproteinase neuwiedase (Bothrops pauloensis, UniProt Q9I9R4), entry NC(=S)N/N=C/c1ccc(Cl)cc1
2.37

Same again, this time with c1cnc2c(c1)ccc1cccnc12 [PHENANTHROLINE]
3.33

Same again, this time with COc1ccc(/C(CCC(=O)O)=N/NC(N)=S)cc1
4.10
